# TEST TARGET: T1, recombinant human PD-1-Fc-Biotin (human, UniProt Q15116 25-167, biotin (site not stated))
# T1 construct: also called antigen protein human PD-1; not shown: Fc
# T1 sequence (Q15116 25-167 limits assumed): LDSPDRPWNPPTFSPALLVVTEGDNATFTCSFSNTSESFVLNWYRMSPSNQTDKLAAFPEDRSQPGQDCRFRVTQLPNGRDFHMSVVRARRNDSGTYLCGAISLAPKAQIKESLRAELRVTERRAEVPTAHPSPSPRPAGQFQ
# METHOD NOTES: competitive ELISA; PD-L1-mFc coated, 0.5 µg/mL PD-1-Fc-Biotin, streptavidin-HRP
What IC50 was measured for each of the following?
Numbers only, in nM.

BINDER: MHPD1-A-3 H Fc (Fc fusion, not shown: a dimerising Fc or GST; small tags and cut ends) VHH: QVQLVESGGGLVQPGGSLRLSCAASGSGRSIYAMGWFRQAPGKGLEFVAGIGWSYATTYYADSVKGRFTISRDNTKNTLYLQMNSLRAEDTAVYYCAADLDHSGFDYWGQGTLVTVSS
IC50 (nM): 0.275

BINDER: MHPD1-A-2 H Fc (Fc fusion, not shown: a dimerising Fc or GST; small tags and cut ends) VHH: QVQLVESGGGLVQPGGSLRLSCAASGRFPSIYAMGWFRQAPGKGLEFVAGIGWRYATTYYADSVKGRFTISRDNTKNTLYLQMNSLRAEDTAVYYCAADLDHSGFDYWGQGTLVTVSS
IC50 (nM): 0.419

BINDER: MHPD1-A-5 H Fc (Fc fusion, not shown: a dimerising Fc or GST; small tags and cut ends) VHH: QVQLVESGGGLVQPGGSLRLSCAASGSSLSIYAMGWFRQAPGKGLEFVAGIGWAYATTYYADSVKGRFTISRDNTKNTLYLQMNSLRAEDTAVYYCAADLDHSGFDYWGQGTLVTVSS
IC50 (nM): 0.306

BINDER: MHPD1-A-6 H Fc (Fc fusion, not shown: a dimerising Fc or GST; small tags and cut ends) VHH: QVQLVESGGGLVQPGGSLRLSCAASGRRPSIYAMGWFRQAPGKGLEFVAGIGWNYATTYYADSVKGRFTISRDNTKNTLYLQMNSLRAEDTAVYYCAADLDHSGFDYWGQGTLVTVSS
IC50 (nM): 0.407

Shifting focus to the binder that follows.
Input line: Given MHPD1-A-1 H Fc (Fc fusion, not shown: a dimerising Fc or GST; small tags and cut ends) VHH: QVQLVESGGGLVQPGGSLRLSCAASGSDPSIYAMGWFRQAPGKGLEFVAGIGWAWATTYYADSVKGRFTISRDNTKNTLYLQMNSLRAEDTAVYYCAADLDRSGFDYWGQGTLVTVSS , state its recorded IC50.
Output line: 0.572
